Assay: Plasma UDCA concentration after oral administration
Type: in vivo, Sprague-Dawley rats
Settings: read-out: Unconjugated plasma UDCA concentration
quantity-kind: concentration (µM)

>>> endpoint_value("C[C@H](CCC(=O)O)[C@H]1CC[C@H]2[C@@H]3[C@@H](O)C[C@@H]4C[C@H](O)CC[C@]4(C)[C@H]3CC[C@]12C [UDCA, reference compound]")
4.8

---

System: bile-flow
Assay: Bile-flow and bile acid secretion during i.v. infusion
Type: in vivo, Sprague-Dawley rats
Conditions: i.v. infusion; bile acid secretion rate vs bile-flow
We begin with a simple list: items and their reported Apparent choleretic activity (slope of regression line).
quantity-kind: Apparent choleretic activity (slope of regression line) (µL/µmol)

>>> endpoint_value("C[C@H](CCC(=O)O)[C@H]1CC[C@H]2[C@@H]3[C@@H](O)C[C@@H]4C[C@H](O)CC[C@]4(C)[C@H]3CC[C@]12C [UDCA, reference compound]")
16
>>> endpoint_value("C[C@H](CCC(=O)O)[C@H]1CC[C@H]2[C@@H]3[C@@H](O)C[C@@H]4C[C@H](OS(=O)(=O)O)CC[C@]4(C)[C@H]3CC[C@]12C [UDCA-3S, ursodeoxycholic acid 3-sulfate]")
13
>>> endpoint_value("C[C@H](CCC(=O)O)[C@H]1CC[C@H]2[C@@H]3[C@@H](OS(=O)(=O)O)C[C@@H]4C[C@H](OS(=O)(=O)O)CC[C@]4(C)[C@H]3CC[C@]12C [UDCA-DS, ursodeoxycholic acid 3,7-disulfate]")
16
>>> endpoint_value("C[C@H](CCC(=O)O)[C@H]1CC[C@H]2[C@@H]3[C@@H](OS(=O)(=O)O)C[C@@H]4C[C@H](O)CC[C@]4(C)[C@H]3CC[C@]12C [UDCA-7S, ursodeoxycholic acid 7-sulfate]")
15

---

Tested on: bile acids secreted in bile
Test: Biliary bile acid composition during i.v. infusion (GC-MS)
Type: in vivo, Sprague-Dawley rats
Conditions: 80-90 mins
We begin with a simple list: items and their reported Relative % composition in bile: β-MCA.
quantity-kind: Relative % composition in bile: β-MCA (%)

>>> endpoint_value("C[C@H](CCC(=O)O)[C@H]1CC[C@H]2[C@@H]3[C@@H](O)C[C@@H]4C[C@H](OS(=O)(=O)O)CC[C@]4(C)[C@H]3CC[C@]12C [UDCA-3S, ursodeoxycholic acid 3-sulfate]")
5.2
>>> endpoint_value("C[C@H](CCC(=O)O)[C@H]1CC[C@H]2[C@@H]3[C@@H](OS(=O)(=O)O)C[C@@H]4C[C@H](OS(=O)(=O)O)CC[C@]4(C)[C@H]3CC[C@]12C [UDCA-DS, ursodeoxycholic acid 3,7-disulfate]")
6.5
>>> endpoint_value("C[C@H](CCC(=O)O)[C@H]1CC[C@H]2[C@@H]3[C@@H](O)C[C@@H]4C[C@H](O)CC[C@]4(C)[C@H]3CC[C@]12C [UDCA, reference compound]")
9.9
>>> endpoint_value("C[C@H](CCC(=O)O)[C@H]1CC[C@H]2[C@@H]3[C@@H](OS(=O)(=O)O)C[C@@H]4C[C@H](O)CC[C@]4(C)[C@H]3CC[C@]12C [UDCA-7S, ursodeoxycholic acid 7-sulfate]")
7.4

---

Tested on: Principal Bile Acids in Jejunum
Test: Bile acid composition of jejunum after oral administration (GC-MS)
Assay type: in vivo, Sprague-Dawley rats
Details: oral gavage 250 mg/day, 4 days; mean ± SEM
quantity-kind: Δ^22-β-Muricholic acid mass in jejunum (mg)

>>> endpoint_value("C[C@H](CCC(=O)O)[C@H]1CC[C@H]2[C@@H]3[C@@H](O)C[C@@H]4C[C@H](O)CC[C@]4(C)[C@H]3CC[C@]12C [UDCA, reference compound]")
0.85
>>> endpoint_value("C[C@H](CCC(=O)O)[C@H]1CC[C@H]2[C@@H]3[C@@H](O)C[C@@H]4C[C@H](OS(=O)(=O)O)CC[C@]4(C)[C@H]3CC[C@]12C [UDCA-3S, ursodeoxycholic acid 3-sulfate]")
2.09
>>> endpoint_value("C[C@H](CCC(=O)O)[C@H]1CC[C@H]2[C@@H]3[C@@H](OS(=O)(=O)O)C[C@@H]4C[C@H](O)CC[C@]4(C)[C@H]3CC[C@]12C [UDCA-7S, ursodeoxycholic acid 7-sulfate]")
1.49
>>> endpoint_value("C[C@H](CCC(=O)O)[C@H]1CC[C@H]2[C@@H]3[C@@H](OS(=O)(=O)O)C[C@@H]4C[C@H](OS(=O)(=O)O)CC[C@]4(C)[C@H]3CC[C@]12C [UDCA-DS, ursodeoxycholic acid 3,7-disulfate]")
0.34

---

We begin with a simple list: items and their reported β-Muricholic acid mass in jejunum.
Tested on: Principal Bile Acids in Jejunum
Experiment: Bile acid composition of jejunum after oral administration (GC-MS)
Format: in vivo, Sprague-Dawley rats
Settings: oral gavage 250 mg/day, 4 days; mean ± SEM
quantity-kind: β-Muricholic acid mass in jejunum (mg)

>>> endpoint_value("C[C@H](CCC(=O)O)[C@H]1CC[C@H]2[C@@H]3[C@@H](O)C[C@@H]4C[C@H](O)CC[C@]4(C)[C@H]3CC[C@]12C [UDCA, reference compound]")
4.12
>>> endpoint_value("C[C@H](CCC(=O)O)[C@H]1CC[C@H]2[C@@H]3[C@@H](OS(=O)(=O)O)C[C@@H]4C[C@H](O)CC[C@]4(C)[C@H]3CC[C@]12C [UDCA-7S, ursodeoxycholic acid 7-sulfate]")
2.21
>>> endpoint_value("C[C@H](CCC(=O)O)[C@H]1CC[C@H]2[C@@H]3[C@@H](OS(=O)(=O)O)C[C@@H]4C[C@H](OS(=O)(=O)O)CC[C@]4(C)[C@H]3CC[C@]12C [UDCA-DS, ursodeoxycholic acid 3,7-disulfate]")
1.70
>>> endpoint_value("C[C@H](CCC(=O)O)[C@H]1CC[C@H]2[C@@H]3[C@@H](O)C[C@@H]4C[C@H](OS(=O)(=O)O)CC[C@]4(C)[C@H]3CC[C@]12C [UDCA-3S, ursodeoxycholic acid 3-sulfate]")
3.02

---

Test system: biliary lipid secretion
Test: Biliary lipid (cholesterol, phospholipid) secretion during i.v. infusion
Type: in vivo, Sprague-Dawley rats
quantity-kind: Biliary phospholipid secretion (in words)

>>> endpoint_value("C[C@H](CCC(=O)O)[C@H]1CC[C@H]2[C@@H]3[C@@H](O)C[C@@H]4C[C@H](O)CC[C@]4(C)[C@H]3CC[C@]12C [UDCA, reference compound]")
"increased significantly"
>>> endpoint_value("C[C@H](CCC(=O)O)[C@H]1CC[C@H]2[C@@H]3[C@@H](OS(=O)(=O)O)C[C@@H]4C[C@H](O)CC[C@]4(C)[C@H]3CC[C@]12C [UDCA-7S, ursodeoxycholic acid 7-sulfate]")
"increased significantly"

---

Experiment: Urinary excretion of UDCA after oral administration
Format: in vivo, Sprague-Dawley rats
We begin with a simple list: items and their reported Urinary unconjugated UDCA excretion.
quantity-kind: Urinary unconjugated UDCA excretion

>>> endpoint_value("C[C@H](CCC(=O)O)[C@H]1CC[C@H]2[C@@H]3[C@@H](O)C[C@@H]4C[C@H](O)CC[C@]4(C)[C@H]3CC[C@]12C [UDCA, reference compound]")
"642.7 nmol/day"
>>> endpoint_value("C[C@H](CCC(=O)O)[C@H]1CC[C@H]2[C@@H]3[C@@H](OS(=O)(=O)O)C[C@@H]4C[C@H](OS(=O)(=O)O)CC[C@]4(C)[C@H]3CC[C@]12C [UDCA-DS, ursodeoxycholic acid 3,7-disulfate]")
"1.3 nmol/day"
>>> endpoint_value("C[C@H](CCC(=O)O)[C@H]1CC[C@H]2[C@@H]3[C@@H](O)C[C@@H]4C[C@H](OS(=O)(=O)O)CC[C@]4(C)[C@H]3CC[C@]12C [UDCA-3S, ursodeoxycholic acid 3-sulfate]")
"5.2 nmol/day"
>>> endpoint_value("C[C@H](CCC(=O)O)[C@H]1CC[C@H]2[C@@H]3[C@@H](OS(=O)(=O)O)C[C@@H]4C[C@H](O)CC[C@]4(C)[C@H]3CC[C@]12C [UDCA-7S, ursodeoxycholic acid 7-sulfate]")
"1.8 nmol/day"
